Ref: PubChem BioAssay

METHOD_SUMMARY: small-molecule binders of probe aInhba, primary screen, biochemical, small-molecule microarray, 635/667 nm fluorescence (AID 1148);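 also: score merges 667nm spot fluorescence with signal-to-noise for antibody binding to printed compounds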
EXPERIMENTAL_SETUP: higher = more signal
Please provide measured composite z-score for the entries that follow.
// response body must contain only the number

Recall and state the measured composite z-score for C=CCC(OC(C)=O)[C@@H]1[C@@H](N(Cc2cccc3ccccc23)C(=O)Cc2ccc(F)cc2)c2cc(OCCCO)ccc2N1C(=O)c1ccc(-c2ccccc2)cc1 (some centres not stated) .
0.066

Please report composite z-score for the following compound: CN(C)C(=O)[C@@]1(Cc2ccccc2N=[N+]=[N-])N=C(c2ccc(OCCCO)cc2)O[C@H]1c1ccccc1
0.841

Return composite z-score (reported value) for this compound: COC(=O)[C@@]1(Cc2ccc(F)cc2)[C@H]2c3cc(C(=O)N4CCCC4)n(CC4CC4)c3C[C@H]2CN1C(=O)c1ccccc1
0.74

Identify the reported composite z-score for the following entry. COCCOC(=O)N1C(=O)[C@@]2(c3cc(C#CC4(O)CCCCCC4)ccc31)[C@H](c1ccc(OCCO)cc1)N1[C@H](c3ccccc3)[C@H](c3ccccc3)OC(=O)[C@H]1[C@@H]2C(=O)Nc1nc2ccccc2s1
0.134

Return composite z-score (reported value) for this compound: CC1CC/C=C\[C@H]2OC34C=CCN(CCN5CCOCC5)C(=O)[C@H]3N(C(C)CO)C(=O)[C@@H]4C2C(=O)O1 (some centres not stated)
-0.0933

Specify measured composite z-score for CC=CC(O)C1C=CC2C(=O)NC(=O)C2N1Nc1ccccn1 (configuration not stated) .
-0.0645

// fetch composite z-score given entry O=C1N(CCS(=O)(=O)c2ccccc2)Cc2ccccc2[C@@H]2OC(c3ccc(OCCCO)cc3)=N[C@]12CCS(=O)(=O)c1ccccc1
-0.108

* * *

TARGET_OF_ASSAY: Focal adhesion kinase 1 (Homo sapiens) (UniProt Q05397)
Sequence (Q05397 whole entry, looked up): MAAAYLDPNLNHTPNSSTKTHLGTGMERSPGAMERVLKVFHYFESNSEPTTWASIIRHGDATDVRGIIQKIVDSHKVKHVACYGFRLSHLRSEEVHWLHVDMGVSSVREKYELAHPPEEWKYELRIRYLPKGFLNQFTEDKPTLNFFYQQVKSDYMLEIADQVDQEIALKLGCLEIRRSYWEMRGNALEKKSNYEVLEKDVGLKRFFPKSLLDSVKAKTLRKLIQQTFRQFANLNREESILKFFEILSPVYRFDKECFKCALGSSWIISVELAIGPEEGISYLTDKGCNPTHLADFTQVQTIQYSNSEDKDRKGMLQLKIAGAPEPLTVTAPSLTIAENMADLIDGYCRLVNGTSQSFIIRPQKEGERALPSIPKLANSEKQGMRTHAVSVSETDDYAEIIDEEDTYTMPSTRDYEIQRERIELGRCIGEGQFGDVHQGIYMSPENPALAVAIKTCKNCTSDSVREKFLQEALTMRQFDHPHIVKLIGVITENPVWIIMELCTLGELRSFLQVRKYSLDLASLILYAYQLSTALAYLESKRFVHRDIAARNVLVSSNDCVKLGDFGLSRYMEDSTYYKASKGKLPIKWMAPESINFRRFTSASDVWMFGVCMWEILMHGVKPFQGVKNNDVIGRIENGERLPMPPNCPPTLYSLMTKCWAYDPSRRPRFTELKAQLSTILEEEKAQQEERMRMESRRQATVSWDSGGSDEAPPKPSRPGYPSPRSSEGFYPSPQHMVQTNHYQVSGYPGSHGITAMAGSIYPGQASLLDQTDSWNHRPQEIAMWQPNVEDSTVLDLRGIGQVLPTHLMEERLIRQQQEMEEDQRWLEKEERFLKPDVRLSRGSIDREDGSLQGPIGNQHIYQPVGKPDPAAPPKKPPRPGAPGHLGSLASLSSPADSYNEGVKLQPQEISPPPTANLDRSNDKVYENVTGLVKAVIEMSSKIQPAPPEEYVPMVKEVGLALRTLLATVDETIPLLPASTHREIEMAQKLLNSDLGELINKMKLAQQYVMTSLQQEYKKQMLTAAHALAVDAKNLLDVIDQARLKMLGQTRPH
METHOD_SUMMARY: small-molecule microarray binders of FAK, primary screen, biochemical, 635/667 nm fluorescence, BSA, DTT (AID 1130);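 also: composite of spot emission at 667 nm and signal to noise over triplicate slides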
EXPERIMENTAL_SETUP: PTK2 binding, 635 nm fluorescence, higher = more signal
ENDPOINT: composite z-score

# return recorded composite z-score for entry C=CCNC(=O)[C@H]1[C@@H]2C(=O)O[C@@H](c3ccccc3)[C@@H](c3ccccc3)N2[C@@H](c2ccc(O)cc2)[C@]12C(=O)N(C(=O)OCCOC)c1ccc(C#CCC(C(=O)OC)C(=O)OC)cc12
0.439

For the compound CCCC=C(CCC)[C@@H](NS(=O)(=O)c1cccc2cccnc12)c1ccc(-c2ccccc2)cc1 , give its measured composite z-score value.
0.638

Read the entry C=CCNC(=O)[C@H]1[C@@H]2C(=O)O[C@@H](c3ccccc3)[C@@H](c3ccccc3)N2[C@@H](c2ccc(OCCO)cc2)[C@]12C(=O)N(C(=O)OCCOC)c1ccc(C#Cc3ccc(OC)cc3)cc12 and write its reported composite z-score.
0.0069

Using known records, supply composite z-score for CN1C(=O)C2C=CC(C(O)c3cc(C(F)(F)F)cc(C(F)(F)F)c3)N(Nc3ccccc3)C2C1=O (stereo not drawn)
0.99

For COc1ccc(C#Cc2ccc3c(c2)[C@]2(C(=O)N3)[C@H](C(=O)Nc3nc4ccccc4s3)[C@H]3C(=O)O[C@H](c4ccccc4)[C@H](c4ccccc4)N3[C@@H]2c2ccccc2OCCO)cc1 , write its composite z-score.
0.446

Return the recorded composite z-score value; entry: CN(C)C(=O)[C@@]1(Cc2ccccc2N=[N+]=[N-])N=C(c2ccc(OCCCO)cc2)O[C@H]1c1ccccc1
0.235

Read the entry CN(C)CCCC[C@@H]1NC(=O)[C@@H]2C[C@H](C(=O)O)[C@H](c3cccc(OCCO)c3)N2C1=O and write its reported composite z-score.
-0.335

Retrieve composite z-score measured for Cc1cccc([C@H]2C[C@H]3C(I)=C[C@@H]2C(=O)[C@]32CO2)c1 and print it.
-0.446

Query composite z-score for COCCOC(=O)N1C(=O)[C@@]2(c3cc(C#CCCO)ccc31)[C@H](C(=O)N1CCCCCCC1)[C@H]1C(=O)O[C@H](c3ccccc3)[C@H](c3ccccc3)N1[C@@H]2c1ccccc1OCCO
0.686

Return reported composite z-score. Input compound: COCCOC(=O)N1C(=O)[C@@]2(c3cc(C#Cc4ccc(OC)cc4)ccc31)[C@H](c1ccc(OCCO)cc1)N1[C@H](c3ccccc3)[C@H](c3ccccc3)OC(=O)[C@H]1[C@@H]2C(=O)Nc1nc2ccccc2s1
0.415

Give the reported composite z-score for this compound. CCOC(=O)C=Cc1ccccc1O
-0.0156

Retrieve composite z-score measured for COC(=O)[C@@]1(Cc2ccc(F)cc2)[C@H]2c3cc(C(=O)N(C)C)n(Cc4c(CO)[nH]cc(C)c4=O)c3C[C@H]2CN1C(=O)c1ccccc1 and print it.
0.0551

Give the value of composite z-score reported for the following: [N-]=[N+]=NCc1ccccc1C[C@]1(C(=O)N2CCOCC2)COC(c2ccc(OCCCO)cc2)=N1
0.168
